All values here come from the supplement of paper PMC11208160.

- assay summary: recombinant UMI read abundance after kanamycin selection (control-corrected) (log10(CPM+1)); higher = more efficient recombination; extreme values may be limits of the assay; sequences stand for … in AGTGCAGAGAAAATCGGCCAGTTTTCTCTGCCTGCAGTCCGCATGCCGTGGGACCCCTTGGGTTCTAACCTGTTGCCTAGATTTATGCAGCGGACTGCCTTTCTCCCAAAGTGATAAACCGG…AGGTTGGTTTCACT; site = the 11-nt donor
Returns the class for an entry based on its recombinant UMI read abundance (log10). Class ranges: Low = under 0.02, Mid = from 0.02 up to 2, High = 2 and over

sequence record	answer label
GTTCGAACATGGACCGGTTTTCCCGGTAATCCGTATTTGGT (site GTTCGAACTAC)	Mid

We now examine a further sequence.
IN: Classify this sequence: TCAGGTGCATGGACCGGTTTTCCCGGTAATCCGTATTTGAT (site TCAGGTGCTAT)
OUT: Mid

* * *

Below is a list of entries, each paired with its recorded recombinant barcode read abundance (log10) value.
- assay summary: recombinant barcode read abundance after kanamycin selection (control-corrected) (log10(CPM+1)); higher = more efficient recombination; sequences stand for … in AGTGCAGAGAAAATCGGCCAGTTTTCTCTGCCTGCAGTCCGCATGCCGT…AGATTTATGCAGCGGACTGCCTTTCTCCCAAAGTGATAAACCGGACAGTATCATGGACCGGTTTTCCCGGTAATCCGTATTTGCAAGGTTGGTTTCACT; site = the 11-nt target

Below are worked cases with known answers.
sequence record	endpoint value
GATACTGCTTGGGTTCTAACCTGTTGCCT (site GAGACTGCTAG)	0.0206
AGCGCTCCTTGGGTTCTAACCTGTTGCCT (site AACGCTCCTAG)	0.0472

IN: Please give the measured recombinant barcode read abundance (log10) for this sequence: TGAGAAGCTTGGGTTCTAACCTGTTGCCT (site TGACCAGCTAG)
OUT: 0.299

IN: Give its recombinant barcode read abundance (log10) value. Item: TAGGTCACTTGGGTTCTAACCTGTTGCAT (site TAGATCACTAT)
OUT: 0.337

IN: Which recombinant barcode read abundance (log10) reading was recorded for the sequence GGCTAACCTTGGGTTCTAACCTGTTGCCT (site CATCGGACTTT) ?
OUT: 0.0416

* * *

- assay summary: recombinant UMI read abundance after kanamycin selection (control-corrected) (log10(CPM+1)); higher = more efficient recombination; extreme values may be limits of the assay; sequences stand for … in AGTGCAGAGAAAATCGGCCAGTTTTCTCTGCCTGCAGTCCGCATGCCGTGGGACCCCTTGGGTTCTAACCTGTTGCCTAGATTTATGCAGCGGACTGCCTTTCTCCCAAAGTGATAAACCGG…AGGTTGGTTTCACT; site = the 11-nt donor
measure: recombinant UMI read abundance (log10)
# print the numeric value only

Examples with their reported recombinant UMI read abundance (log10) follow.
sequence record	endpoint value
TTTGCGGCATGGACCGGTTTTCCCGGTAATCCGTATTTGCT (site TCTGCGGCTAG)	0
GTATCTCCATGGACCGGTTTTCCCGGTAATCCGTATTTGTA (site GTATCTCCTTA)	0.705
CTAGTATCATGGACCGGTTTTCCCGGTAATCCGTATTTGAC (site GTAGGATCTGT)	0.00691
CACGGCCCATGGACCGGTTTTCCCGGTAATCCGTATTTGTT (site CACGGCCCTAT)	0.437
CCGTTAGCATGGACCGGTTTTCCCGGTAATCCGTATTTGTC (site CCGTTAGCTCA)	0.00762
CGTGGAACATGGACCGGTTTTCCCGGTAATCCGTATTTGTG (site CGTGGAACTCA)	1.16
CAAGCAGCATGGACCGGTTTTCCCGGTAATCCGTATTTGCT (site CAAGCAGCTAA)	0.285
AGCTCAGCATGGACCGGTTTTCCCGGTAATCCGTATTTGGG (site TGCTCAGCTCC)	0.366
TGGCGGGCATGGACCGGTTTTCCCGGTAATCCGTATTTGGC (site TGGCTGGCTGC)	1.01
GTGAGAACATGGACCGGTTTTCCCGGTAATCCGTATTTGGC (site GTGAGAACTGC)	1.49

IN: // returns reported recombinant UMI read abundance (log10) for input TACTTGTCATGGACCGGTTTTCCCGGTAATCCGTATTTGCT (site TACTTGGCTAG)
OUT: 0.00306

IN: Entry CAATTCGCATGGACCGGTTTTCCCGGTAATCCGTATTTGCT (site CAATTCCCTAG) : reported recombinant UMI read abundance (log10) = ?
OUT: 0

IN: Could you tell me which recombinant UMI read abundance (log10) is on file for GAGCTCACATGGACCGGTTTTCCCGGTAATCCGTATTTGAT (site GATCTCACTAT) ?
OUT: 0.0468

IN: Need recombinant UMI read abundance (log10) of CGGGACTCATGGACCGGTTTTCCCGGTAATCCGTATTTGCC (site CGGGACTCTGG) , thanks.
OUT: 3.01

IN: Returns the measured recombinant UMI read abundance (log10) for the input sequence. Input: TTAGCTGCATGGACCGGTTTTCCCGGTAATCCGTATTTGGG (site TTAGCTGCTCG)
OUT: 0.0143
